Source: ChEMBL document CHEMBL1961873

Measured inhibition, listed per entry.
Molecular target: Serine/threonine-protein kinase Nek2 (Homo sapiens);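 note: mean inhibition value from the GSK PKIS kinase screening panel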
Sequence (whole entry): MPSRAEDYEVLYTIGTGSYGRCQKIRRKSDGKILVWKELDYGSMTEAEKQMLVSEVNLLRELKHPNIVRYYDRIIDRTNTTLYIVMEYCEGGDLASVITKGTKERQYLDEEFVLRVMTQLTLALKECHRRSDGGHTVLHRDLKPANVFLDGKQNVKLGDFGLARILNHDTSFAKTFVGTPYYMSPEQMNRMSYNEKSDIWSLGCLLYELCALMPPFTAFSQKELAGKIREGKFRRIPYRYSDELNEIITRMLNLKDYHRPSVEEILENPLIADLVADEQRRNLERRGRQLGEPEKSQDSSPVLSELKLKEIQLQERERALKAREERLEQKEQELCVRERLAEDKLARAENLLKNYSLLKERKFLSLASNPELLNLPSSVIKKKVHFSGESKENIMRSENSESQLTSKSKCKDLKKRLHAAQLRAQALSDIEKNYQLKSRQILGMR
Conditions: at 0.1 µM
Express your answer in %, writing the number without its unit.

## Input Which value of inhibition has been reported for "O=C(Nc1ccc(Oc2ccc3[nH]c(NC(=O)c4ccccc4)nc3c2)cc1)Nc1cc(C(F)(F)F)ccc1F" in the records?
## Output 4.15

## Input Consider next the compound "Cc1nnc(-c2ccc(C)c(-c3ccc(C(=O)NCc4ccc(Cl)cc4)cc3)c2)o1" in the same way.
## Output 4.28

## Input Then "Fc1ccc(-c2ncn(C3CCNCC3)c2-c2ccnc(Oc3ccc4c(c3)OCO4)n2)cc1" ?
## Output 7.49

====

Target: Protein kinase C eta type (Homo sapiens);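 note: values are the mean percent inhibition of PKC-eta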
Details: at 0.1 µM
RECORDED ENDPOINT: inhibition (%)
A number alone suffices; assume %.

Please review the following examples before continuing.
1) COc1cc(C)c(N(C)C(=O)CN(C)C)cc1Nc1nc(Nc2cccc(F)c2C(N)=O)c2cc[nH]c2n1; 4.46
2) CS(=O)(=O)CCNCc1ccc(-c2ccc3ncnc(Nc4ccc(OCc5ccccc5)c(Br)c4)c3c2)o1; 5.37
3) O=C(Nc1n[nH]c2nc(-c3ccco3)ccc12)C1CC1; -0.3
4) Fc1ccc(-c2c(-c3ccncc3)nc3n2CCS3)cc1; -2.42
5) O=C1NC(=O)C(c2cccc(Cl)c2)=C1Nc1ccc(Cl)c(C(=O)O)c1; 3.84

Here is another compound to look at.
## Input Record "Cc1ccc(C(=O)NC(C)C)cc1-c1ccc(C(=O)NCC2CC2)cc1" : what is its inhibition with Protein kinase C eta type (Homo sapiens)?
## Output -2.29

====

Molecular target: Cyclin-dependent kinase 1 (Homo sapiens) (UniProt P06493);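 note: mean percent inhibition of the CDK1/cyclin B complex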
Sequence (P06493 whole entry, looked up): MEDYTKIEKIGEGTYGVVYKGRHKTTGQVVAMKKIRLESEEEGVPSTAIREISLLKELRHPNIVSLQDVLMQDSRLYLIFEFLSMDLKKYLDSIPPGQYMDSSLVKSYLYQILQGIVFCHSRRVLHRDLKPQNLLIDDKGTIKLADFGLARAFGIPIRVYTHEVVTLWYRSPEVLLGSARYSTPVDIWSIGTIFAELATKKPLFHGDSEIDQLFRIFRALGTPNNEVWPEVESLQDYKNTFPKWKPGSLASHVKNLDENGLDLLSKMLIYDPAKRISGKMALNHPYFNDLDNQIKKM
Settings: at 1 µM
Entries and their inhibition
Return type: number; implicit unit %.

Recorded inhibition, per entry:
1) CCS(=O)(=O)c1ccc(OC)c(Nc2ncc(-c3cccc(-c4ccccc4F)c3)o2)c1; 2.37
2) NS(=O)(=O)c1ccc(N/N=C2\C(=O)Nc3ccc(C(=O)NCCCn4ccnc4)cc32)cc1; 66.7

Now for the compound whose inhibition we want.
## Input Which inhibition reading was recorded for the compound "C#Cc1cccc(Nc2ncnc3ccc(OCCCCNCCS(C)(=O)=O)cc23)c1" ?
## Output -2.94

====

System: Mast/stem cell growth factor receptor Kit (Homo sapiens), P10721 [T670I]
Sequence (P10721 whole entry T670I): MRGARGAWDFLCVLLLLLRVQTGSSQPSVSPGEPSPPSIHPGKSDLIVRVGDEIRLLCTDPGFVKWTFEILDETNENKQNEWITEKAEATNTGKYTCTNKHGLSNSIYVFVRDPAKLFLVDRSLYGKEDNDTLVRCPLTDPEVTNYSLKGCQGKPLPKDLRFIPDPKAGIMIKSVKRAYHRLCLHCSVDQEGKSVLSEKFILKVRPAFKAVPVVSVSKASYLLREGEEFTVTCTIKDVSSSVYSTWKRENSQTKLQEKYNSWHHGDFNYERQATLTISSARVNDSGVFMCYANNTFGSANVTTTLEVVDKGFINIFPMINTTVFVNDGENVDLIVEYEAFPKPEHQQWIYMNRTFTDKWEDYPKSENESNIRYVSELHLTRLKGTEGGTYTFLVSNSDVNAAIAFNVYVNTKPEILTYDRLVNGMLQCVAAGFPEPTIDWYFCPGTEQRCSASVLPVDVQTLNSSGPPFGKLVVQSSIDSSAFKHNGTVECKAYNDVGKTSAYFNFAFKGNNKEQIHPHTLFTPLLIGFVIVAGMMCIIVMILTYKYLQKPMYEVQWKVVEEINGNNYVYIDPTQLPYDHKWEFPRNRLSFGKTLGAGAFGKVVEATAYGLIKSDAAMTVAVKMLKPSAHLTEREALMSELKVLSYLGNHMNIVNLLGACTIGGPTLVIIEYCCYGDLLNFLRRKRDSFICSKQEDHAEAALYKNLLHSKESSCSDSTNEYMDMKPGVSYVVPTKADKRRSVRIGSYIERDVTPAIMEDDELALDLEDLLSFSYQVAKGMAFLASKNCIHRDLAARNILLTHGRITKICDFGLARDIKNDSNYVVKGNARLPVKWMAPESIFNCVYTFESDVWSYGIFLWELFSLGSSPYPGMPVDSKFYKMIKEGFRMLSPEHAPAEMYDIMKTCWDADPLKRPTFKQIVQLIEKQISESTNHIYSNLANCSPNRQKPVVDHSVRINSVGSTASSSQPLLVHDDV
Details: at 0.1 µM
RECORDED ENDPOINT: inhibition (%)
Write the value in % as a bare number.

Would you please look over these solved cases?
1. O=C1NC(=O)C(c2cccc(Cl)c2)=C1Nc1ccc(Cl)c(C(=O)O)c1; 2.83
2. NS(=O)(=O)c1ccc(Nc2cc(-c3ccc(O)c(F)c3)n[nH]2)cc1; -0.5

## Input Using the record for "COc1ccc(-c2ccc3c(NC(=O)C4CC4)n[nH]c3n2)cc1" , report its inhibition.
## Output 0.56

## Input Please do the same for "CS(=O)(=O)CCNCc1cc(-c2cc3c(Nc4ccc(OCc5cccc(F)c5)c(Cl)c4)ncnc3s2)cs1" as well.
## Output 2.2

## Input Let us now turn to "FC(F)(F)c1cccc(Nc2nccc(-c3cnn4nc(-c5ccccc5)ccc34)n2)c1"
## Output 1.8

## Input And "Cc1ccc(C(=O)NC(C)C)cc1-c1ccc(C(=O)NCC2CC2)cc1" ?
## Output -3.01

## Input // repeat for "Cc1ccc(NC(=O)c2ccoc2)cc1-c1ccc(C(=O)NCC2CC2)cc1" and report
## Output 1.06

## Input Field entry: COc1ccc2cc(-c3c(-c4ccncc4)nc(-c4ccc([S+](C)[O-])cc4C)n3C)ccc2c1 (stereo unspecified)
## Output 0.48

## Input Try this molecule too: "NC(=O)c1cc(-c2ccncc2)cc(-c2ccccc2)c1N"
## Output 3.99

## Input Same thing, different molecule: "Fc1ccc(-c2c(-c3ccncc3)nc3n2CCS3)cc1"
## Output 2.05

## Input Same lookup for "COc1ccc(C2=C(N3CCc4ccccc43)C(=O)NC2=O)cc1" , please.
## Output 6.38
